- measured_on: Death-associated protein kinase 1 (Homo sapiens) (UniProt P53355)
- Sequence (P53355 whole entry, looked up): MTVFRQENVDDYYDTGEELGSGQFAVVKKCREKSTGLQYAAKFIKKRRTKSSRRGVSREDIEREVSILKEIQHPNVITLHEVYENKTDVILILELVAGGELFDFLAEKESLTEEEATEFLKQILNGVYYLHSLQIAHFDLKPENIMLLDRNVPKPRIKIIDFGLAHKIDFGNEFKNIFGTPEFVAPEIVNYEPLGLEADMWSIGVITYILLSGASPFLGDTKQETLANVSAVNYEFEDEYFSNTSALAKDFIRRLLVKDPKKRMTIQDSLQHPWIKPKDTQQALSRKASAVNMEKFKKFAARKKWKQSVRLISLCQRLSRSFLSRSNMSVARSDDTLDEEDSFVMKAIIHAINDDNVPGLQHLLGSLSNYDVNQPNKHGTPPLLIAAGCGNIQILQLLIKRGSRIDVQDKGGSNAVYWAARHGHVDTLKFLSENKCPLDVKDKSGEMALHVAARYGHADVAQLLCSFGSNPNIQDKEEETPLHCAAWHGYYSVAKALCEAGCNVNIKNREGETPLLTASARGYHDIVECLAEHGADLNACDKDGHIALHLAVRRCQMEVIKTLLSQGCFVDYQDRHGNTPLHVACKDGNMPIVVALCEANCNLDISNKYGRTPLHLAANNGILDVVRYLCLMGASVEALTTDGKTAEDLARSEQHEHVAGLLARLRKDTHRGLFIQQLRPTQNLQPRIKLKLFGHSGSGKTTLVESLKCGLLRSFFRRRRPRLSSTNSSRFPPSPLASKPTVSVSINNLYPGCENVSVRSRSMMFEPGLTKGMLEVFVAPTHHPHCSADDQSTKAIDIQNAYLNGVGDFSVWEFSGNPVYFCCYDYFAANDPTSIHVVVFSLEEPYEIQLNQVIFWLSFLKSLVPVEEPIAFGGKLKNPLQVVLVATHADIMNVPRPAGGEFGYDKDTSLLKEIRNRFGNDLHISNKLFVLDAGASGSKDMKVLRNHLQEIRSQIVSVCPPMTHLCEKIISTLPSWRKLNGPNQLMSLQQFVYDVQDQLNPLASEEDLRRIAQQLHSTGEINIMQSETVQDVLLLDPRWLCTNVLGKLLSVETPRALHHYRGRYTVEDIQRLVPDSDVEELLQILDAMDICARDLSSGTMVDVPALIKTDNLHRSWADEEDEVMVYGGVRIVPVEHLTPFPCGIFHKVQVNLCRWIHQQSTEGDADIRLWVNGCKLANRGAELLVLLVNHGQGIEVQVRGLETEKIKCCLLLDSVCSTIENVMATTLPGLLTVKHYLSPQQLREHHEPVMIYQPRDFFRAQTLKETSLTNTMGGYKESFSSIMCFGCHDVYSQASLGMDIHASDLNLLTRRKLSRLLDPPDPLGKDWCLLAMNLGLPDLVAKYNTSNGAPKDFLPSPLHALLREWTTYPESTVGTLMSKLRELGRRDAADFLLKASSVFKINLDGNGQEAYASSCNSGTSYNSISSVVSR
- settings: at 1 µM
measured_metric: inhibition
Form field: result (number plus unit)

molecule=N#Cc1c(NC(=O)CN2CCOCC2)sc2c1CCCC2 measured_metric=inhibition result=5.97%
molecule=CCOc1ccc2c(-c3ccnc(Nc4cccc(C(F)(F)F)c4)n3)cnn2n1 measured_metric=inhibition result=1.54%
molecule=Nc1ncc(-c2cccc(S(N)(=O)=O)c2)c2scc(-c3ccc(F)c(Cl)c3)c12 measured_metric=inhibition result=3.2%
molecule=c1ccc(-c2nc3n(c2-c2ccc4c(c2)OCO4)CCC3)nc1 measured_metric=inhibition result=1.91%

May I ask what inhibition has been recorded for COC(=O)c1sc(-n2cnc3cc(OC)c(OC)cc32)cc1OCc1ccccc1C(F)(F)F ?
1.94%

* * *

# maps each entry to its inhibition
- measured_on: cAMP-dependent protein kinase catalytic subunit PRKX (Homo sapiens) (UniProt P51817)
- Sequence (P51817 whole entry): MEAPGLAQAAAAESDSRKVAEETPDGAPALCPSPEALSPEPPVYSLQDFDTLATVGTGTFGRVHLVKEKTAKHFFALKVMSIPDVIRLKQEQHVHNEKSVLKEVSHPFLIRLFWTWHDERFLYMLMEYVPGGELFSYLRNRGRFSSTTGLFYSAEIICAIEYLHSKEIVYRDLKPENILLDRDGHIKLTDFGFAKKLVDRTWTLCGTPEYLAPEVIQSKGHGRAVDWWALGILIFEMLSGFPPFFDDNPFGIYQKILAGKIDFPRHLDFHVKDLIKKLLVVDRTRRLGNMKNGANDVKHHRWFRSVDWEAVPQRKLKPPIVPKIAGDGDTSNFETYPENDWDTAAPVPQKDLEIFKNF
- settings: at 0.1 µM
Answer in %, number only, no unit symbol.

Some compounds with recorded inhibition:
molecule=COc1cccc(-n2ncc3c(N/N=C/c4ccc(F)cc4)ncnc32)c1 measured_metric=inhibition numeric_readout=2.4
molecule=N#Cc1c(NC(=O)c2ccc(F)cc2)sc2c1CCCC2 measured_metric=inhibition numeric_readout=0.52
molecule=Nc1nc(-c2ccc(F)cc2)c(-c2ccc3ncccc3n2)s1 measured_metric=inhibition numeric_readout=2.61
molecule=CN1CCC(n2cnc(-c3ccc(F)cc3)c2-c2ccnc(N)n2)CC1 measured_metric=inhibition numeric_readout=0.51
molecule=NC(=O)c1sc(-n2cnc3ccc(C(F)(F)F)cc32)cc1OCc1ccccc1Br measured_metric=inhibition numeric_readout=3.81

Entry Fc1ccc(-c2nn3ccccc3c2-c2ccncc2)cc1 : reported inhibition = ?
1.41

Also check [O-][S+]1CCN(Cc2ccc(-c3ccc4ncnc(Nc5ccc(OCc6cccc(F)c6)c(Cl)c5)c4c3)o2)CC1
2.88

Follow-up entry: Clc1ccc(-c2nn3ncccc3c2-c2ccnc(Nc3ccccc3)n2)cc1
2.16

Next entry: CCN(CC)S(=O)(=O)c1ccc(OC)c(Nc2ncc(-c3ccccc3)o2)c1
0.38

Follow-up item: Fc1cccc(COc2ccc(Nc3ncnc4sc(-c5ccco5)cc34)cc2Cl)c1
2.01

Then CCn1c(-c2nonc2N)nc2ccccc21 ?
3.21

Also, Nc1nc(-c2cccc(Cl)c2)c(-c2ccc3ncccc3n2)s1 please.
3.46

One more compound: Fc1ccc(-c2cc(-c3c[nH]nc3-c3ccccn3)ccn2)cc1
1.98

How about this compound: NS(=O)(=O)c1ccc(Nc2ncc(-c3ccccc3)o2)cc1
2.08

Lookup Fc1ccc(-c2nn3ncccc3c2-c2ccnc(Nc3ccc4c(c3)OCCO4)n2)cc1
0.43

Same read-out for COc1ccc(-c2cc(-c3c[nH]nc3-c3ccccn3)ccn2)cc1 ?
2.8

And for COC(=O)c1sc(-n2cnc3cc(OC)c(OC)cc32)cc1OCc1ccccc1C(F)(F)F ?
-0.14

* * *

- measured_on: Protein kinase C alpha type (Homo sapiens) (UniProt P17252)
- settings: at 0.1 µM
measured_metric: inhibition (%)
All answers are understood in %, so give the number only.

molecule=COc1cc2ncn(-c3cc(OCc4ccccc4C(F)(F)F)c(C(=O)N(C)C)s3)c2cc1OC numeric_readout=-0.03
molecule=CNC(=O)c1cncc(/C=C/c2ccccc2Cl)c1 numeric_readout=0.42
molecule=CCN1CCC(CC(=O)Nc2n[nH]c3nnc(-c4cccc(F)c4F)cc23)CC1 numeric_readout=0.66
molecule=COc1cc2c(cc1Nc1nc(Nc3ccsc3C(N)=O)c3cc[nH]c3n1)N(C(=O)CN(C)C)CCC2(C)C numeric_readout=4.21

Here's the next entry for you.
For the compound shown here, COC(=O)Nc1nc2ccc(Oc3ccc(NC(=O)Nc4cccc(Cl)c4)cc3)cc2[nH]1 , give the reported inhibition.
0.15
